target: SARM1 SAM-TIR (Homo sapiens); construct: a fragment of the SARM1 molecule encompassing the SAM and TIR domains; tandem Strep-tag II (WSHPQFEK twice, with Gly/Ser linkers); made in house; host or cells: NRK1-HEK293T cells (transient transfection; crude lysate supernatant used, not purified); assay: SAM-TIR SARM1 IC50 assay (NADase activity, NAD+ cleavage, RapidFire MS readout); format: biochemical
Sequence (Q6SZW1 409-724 limits assumed): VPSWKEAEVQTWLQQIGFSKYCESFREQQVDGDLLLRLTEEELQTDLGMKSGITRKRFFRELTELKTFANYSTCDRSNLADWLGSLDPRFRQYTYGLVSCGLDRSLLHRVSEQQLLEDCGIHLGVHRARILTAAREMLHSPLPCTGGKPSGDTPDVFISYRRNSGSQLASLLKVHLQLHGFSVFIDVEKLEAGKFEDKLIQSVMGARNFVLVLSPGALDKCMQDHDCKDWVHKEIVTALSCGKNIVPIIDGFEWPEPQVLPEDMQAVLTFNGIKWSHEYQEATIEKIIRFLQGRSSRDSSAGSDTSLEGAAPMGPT
observable: IC50

Note to self: IC50 recorded for CS(=O)(=O)N1C2CCC1C(n1sc(Nc3c(Cl)ccc4ncccc34)c(C#N)c1=O)C2 (stereo not shown) [Example 26] was < 1000 nM
